Give measured Residual turnover for each item. Keep answers brief.
Tested on: HPPD polypeptides (wild-type SEQ ID NO:1 and mutants)
CONDITION SET: in the presence of Cmpd. 1, 15 μM inhibitor, high substrate concentration; total change in signal normalized to no inhibitor
Please state the value followed by its unit.

MOLECULE	Residual turnover
8 (protein, mutant HPPD polypeptide) MADLYENPMGLMGFEFIEFASPTPGTLEPIFEIMGFTKVATHRSKNVHLYRQGEINLILNNEPNSIASYFAAEHGPSVCGMAFRVKDSQKAYNRALELGAQPIHIDTGPMELNLPAIKGIGGAPLYLIDRFGEGSSIYDIDFVYLEGVERNPVGAGLKVIDHLTHNVYRGRMVYWANFYEKLFNFREARYFDIKGEYTGLTSKAMSAPDGMIRIPLNEESSKGAGQIEEFLMQFNGEGIQHVAFLTDDLVKTWDALKKIGMRFMTAPPDTYYEMLEGRLPDHGEPVDQLQARGILLDGSSVEGDKRLLLQIFSETLMGPVFFEFIQRKGDDGFGPDSFKVLFESIERDQVRRGVLTAD	44%

Prompt: Could you share which Residual turnover value was measured for 21 (protein, mutant HPPD polypeptide) MADLYENPMGLMGFEFIEFASPTPGTLEPIFEIMGFTKVATHRSKNVHLYRQGEINLILNNEPNSIASYFAAEHGPSVCGMAFRVKDSQKAYNRALELGAQPIHIDTGPMELNLPAIKGIGGAPLYLIDRFGEGSSIYDIDFVYLEGVERNPVGAGLKVIDHLTHNVYRGRMVYWANFYEKLFNFREARYFDIKGEYTGLTSKAMSAPDGMIRIPLNEESSKGAGQIEEFLMQFNGEGIQHVAFLTDDLVKTWDALKKIGMRFMTAPPDTYYEMLEGRLPDHGEPVDQLQARGILLDGSSVEGDKRLLLQIFSETLMGPVFFEFIQRKGDDGFGPHSFKALFESIERDQVRRGVLTAD ?
Response: 30%
